Values were extracted from paper PMC8025677.

molecular target: iSeroSnFR; type: binding, Thermoanaerobacter sp. X513; conditions: read-out: apparent Kd; purified iSeroSnFR 100 nM, pH 7.4
pKd: −log10 of the molar value.
measurementName: pKd

- smilesStructure: "NCCc1c[nH]c2ccccc12"
  measurementName: "pKd"
  value: 2.62
